Readings of Activity for the listed compounds
test system: Rattus norvegicus; assay: Anti-inflammatory activity in Rattus norvegicus (rat) assessed as decrease in carrageenan-induced paw edema at 100 mg/kg, po administered 30 min prior to carrageenan challenge measured after 120 min (reference value: 2.375 +/- 0.1436 mm); type: functional
// return numeric value only (unit: mm, not printed)

Consider the following illustrative entries.
> print(dat)
                                   compound  experimental.system  quantity.unit  test.result
1  COc1ccc(C2SCC(=O)N2NC(=O)c2cc(OC)ccc2Br)cc1 (stereo not given)    Rattus norvegicus             mm         1.75
2  COc1ccc(Br)c(C(=O)NN2C(=O)CSC2c2cccc(Cl)c2)c1 (stereo not given)    Rattus norvegicus             mm         1.65
3  COc1ccc(Br)c(C(=O)NN2C(=O)CSC2c2ccc(-c3ccccc3)cc2)c1 (stereo not given)    Rattus norvegicus             mm        1.875

Provide the reported Activity (system: Rattus norvegicus) for COc1ccc(Br)c(C(=O)NN2C(=O)CSC2c2ccccc2)c1 (stereo not given)
1.65

Provide the reported Activity (system: Rattus norvegicus) for COc1ccc(Br)c(C(=O)NN2C(=O)CSC2c2ccc(O)c(OC)c2)c1 (stereo not given)
1.77

Provide the reported Activity (system: Rattus norvegicus) for COc1ccc(Br)c(C(=O)NN2C(=O)CSC2c2cccc3cc(OC)ccc23)c1 (stereo not given)
1.89

Provide the reported Activity (system: Rattus norvegicus) for COc1ccc(Br)c(C(=O)NN2C(=O)CSC2C2=C(Cl)c3ccccc3C(c3ccc(Cl)c(Cl)c3)C2)c1 (stereo not given)
2.175

Provide the reported Activity (system: Rattus norvegicus) for COc1ccc(Br)c(C(=O)NN2C(=O)CSC2c2ccccc2O)c1 (stereo not given)
1.98

Provide the reported Activity (system: Rattus norvegicus) for COc1ccc(Br)c(C(=O)NN2C(=O)CSC2c2ccc(O)cc2)c1 (stereo not given)
1.899

Provide the reported Activity (system: Rattus norvegicus) for COc1ccc(Br)c(C(=O)NN2C(=O)CSC2c2ccc(Cl)cc2)c1 (stereo not given)
2.25
